Form field: DC50 (one value per entry).
molecular target: Cbl-b (Homo sapiens, UniProt Q13191); construct: Cbl-b-HiBit KI Jurkat Cells were purchased from Promega; host or cells: Cbl-b-HiBiT knock-in Jurkat cells; test: Cbl-b Degradation Method B (Nano-Glo HiBiT lytic detection); assay type: cell-based; conditions: Cbl-b-HiBit KI Jurkat Cells, incubated at least 6-24 hours; half maximal degradation; read-out: Cbl-b Degredation Method B IC50
Sequence (Q13191 whole entry): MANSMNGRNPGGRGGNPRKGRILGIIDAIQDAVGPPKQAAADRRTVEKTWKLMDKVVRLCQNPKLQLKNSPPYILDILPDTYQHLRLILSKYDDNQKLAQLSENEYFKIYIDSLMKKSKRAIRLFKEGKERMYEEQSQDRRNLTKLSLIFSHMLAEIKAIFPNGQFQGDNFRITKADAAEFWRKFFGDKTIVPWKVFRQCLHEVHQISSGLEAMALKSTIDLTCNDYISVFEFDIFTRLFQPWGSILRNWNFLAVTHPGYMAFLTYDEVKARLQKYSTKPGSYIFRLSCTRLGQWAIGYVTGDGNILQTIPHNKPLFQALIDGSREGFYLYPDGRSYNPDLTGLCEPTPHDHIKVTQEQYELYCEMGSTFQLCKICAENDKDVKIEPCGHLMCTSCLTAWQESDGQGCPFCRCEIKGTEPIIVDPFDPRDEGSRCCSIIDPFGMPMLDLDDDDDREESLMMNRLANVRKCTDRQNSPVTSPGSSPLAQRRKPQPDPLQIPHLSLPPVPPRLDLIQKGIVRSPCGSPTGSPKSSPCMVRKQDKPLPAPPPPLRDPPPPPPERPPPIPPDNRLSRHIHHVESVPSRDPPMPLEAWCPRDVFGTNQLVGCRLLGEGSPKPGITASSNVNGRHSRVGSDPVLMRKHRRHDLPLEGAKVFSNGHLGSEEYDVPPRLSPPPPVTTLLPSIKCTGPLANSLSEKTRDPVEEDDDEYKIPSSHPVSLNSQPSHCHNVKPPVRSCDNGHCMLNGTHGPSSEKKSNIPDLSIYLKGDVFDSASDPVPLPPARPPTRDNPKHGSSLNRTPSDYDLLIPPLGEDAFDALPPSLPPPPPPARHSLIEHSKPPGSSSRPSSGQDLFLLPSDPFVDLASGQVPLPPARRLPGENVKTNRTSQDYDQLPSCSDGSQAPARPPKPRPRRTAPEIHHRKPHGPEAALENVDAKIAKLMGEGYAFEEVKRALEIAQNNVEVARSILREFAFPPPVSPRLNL

compound="CC(C)n1c(=O)n(C2CCC(=O)NC2=O)c2cccc(N3CCC(O[C@H]4CC[C@H](CN5CCN(Cc6cc7c(c(C(F)(F)F)c6)CN(c6cccc([C@]8(Cc9nncn9C)C[C@@H](C#N)C8)c6)C7=O)C(C)(C)C5)CC4)CC3)c21 (some centres unmarked) [Example 302]" measure_name=DC50 obs_value="5 to 50 nM"

Entry CC1c2nc(N3CCC(O[C@H]4CC[C@H](CN5CCN(Cc6cc(C(F)(F)F)c7cn(-c8cccc(C9(Cc%10nncn%10C)CCC9)c8)nc7c6)C(C)(C)C5)CC4)CC3)ccc2C(=O)N1C1CCC(=O)NC1=O (relative stereo) ; DC50 = > 500 nM

====

target: Cbl-b (Homo sapiens); construct: Cbl-b-HiBit KI Jurkat Cells were purchased from Promega; host or cells: Cbl-b-HiBiT knock-in Jurkat cells; assay: Cbl-b Degradation Method B (Nano-Glo HiBiT lytic detection); type: cell-based; settings: Cbl-b-HiBit KI Jurkat Cells, incubated at least 6-24 hours; maximum degradation observed; read-out: Cbl-b Degredation Method B Dmax (%)
Dmax values by entry

Some solved entries appear below for comparison.
compound="CC1CN(C[C@H]2CC[C@@H](OC3CCN(c4ccc5c(c4F)CN(C4CCC(=O)NC4=O)C5=O)CC3)CC2)CCN1C[C@H]1CCCN(Cc2cc3c(c(C(F)(F)F)c2)CN(c2cccc(C4(Cc5nncn5C)COC4)c2)C3=O)C1 (stereo partly shown) [Example 166]" measure_name=Dmax obs_value="> 70%"
compound="CC1c2nc(N3CCC(OC4CCC(CN5CCN(Cc6cc7c(c(C(F)(F)F)c6)CN(c6cccc(C8(Cc9nncn9C)COC8)c6)C7=O)C[C@H]5C)CC4)CC3)ccc2C(=O)N1C1CCC(=O)NC1=O (stereo partly shown) [Example 238]" measure_name=Dmax obs_value="35 to 70%"
compound="Cn1cnnc1CC1(c2cccc(N3Cc4c(cc(CN5CCC[C@H](CN6CCN(C[C@H]7CC[C@@H](OC8CCN(c9ccc%10c(c9Cl)CN(C9CCC(=O)NC9=O)C%10=O)CC8)CC7)CC6)C5)cc4C(F)(F)F)C3=O)c2)COC1 (stereo partly shown) [Example 165]" measure_name=Dmax obs_value="> 70%"

Please examine the following record next.
Query Cc1cc(N2CCC(O[C@H]3CC[C@H](CN4CCN(Cc5cc6c(c(C(F)(F)F)c5)CN(c5cccc(C7(Cc8nncn8C)CC7)c5)C6=O)C(C)(C)C4)CC3)CC2)c(F)c2c1C(=O)N(C1CCC(=O)NC1=O)C2 (stereo partly shown) [Example 227] on Cbl-b (Homo sapiens); Dmax returned: > 70%

====

target: Cbl-b (Homo sapiens, UniProt Q13191); construct: Cbl-b-HiBit KI Jurkat Cells were purchased from Promega; host or cells: Cbl-b-HiBiT knock-in Jurkat cells; experiment: Cbl-b Degradation Method B (Nano-Glo HiBiT lytic detection); type: cell-based; settings: Cbl-b-HiBit KI Jurkat Cells, incubated at least 6-24 hours; half maximal degradation; read-out: Cbl-b Degredation Method B IC50
// values below are reported DC50

Consider the worked cases shown below.
compound="Cn1cnnc1CC1(c2cccc(N3Cc4c(cc(CN5CCC(CCN6CCN(c7ccc8c(c7)C(=O)N(C7CCC(=O)NC7=O)C8=O)CC6)CC5)cc4C(F)(F)F)C3=O)c2)COC1 (stereo not drawn) [Example 39]" obs_value="> 500 nM"
compound="Cc1cc(N2C[C@H]3C[C@@H]2CN3CC2CCC3(CC2)CN(c2cc4c(c(C(F)(F)F)c2)CN(c2cccc([C@]5(Cc6nncn6C)C[C@@H](C#N)C5)c2)C4=O)C3)c(F)c2c1C(=O)N(C1CCC(=O)NC1=O)C2 (stereo partly drawn) [Example 150]" obs_value="> 500 nM"
compound="Cn1cnnc1CC1(c2cccc(N3Cc4c(cc(CN5CCC6(CC5)CCN(c5ccc7c(c5)C(=O)N(C5CCC(=O)NC5=O)C7=O)CC6)cc4C(F)(F)F)C3=O)c2)COC1 (stereo not drawn) [Example 27]" obs_value="> 500 nM"
compound="CC1CC(N2CCC(COCCOc3ccc4c(c3)C(=O)N(C3CCC(=O)NC3=O)C4=O)CC2)CN(Cc2cc3c(c(C(F)(F)F)c2)CN(c2cccc(C4(Cc5nncn5C)COC4)c2)C3=O)C1 (stereo not drawn) [Example 102]" obs_value="> 500 nM"
compound="Cn1cnnc1CC1(c2cccc(N3Cc4c(cc(N5CC6(CCN(CC7CCN(c8cccc9c8CN(C8CCC(=O)NC8=O)C9=O)CC7)CC6)C5)cc4C(F)(F)F)C3=O)c2)COC1 (stereo not drawn) [Example 119]" obs_value="< 5 nM"
compound="Cn1cnnc1CC1(c2cccc(N3Cc4c(cc(CNC5CCN(c6ccc7c(c6)C(=O)N(C6CCC(=O)NC6=O)C7=O)CC5)cc4C(F)(F)F)C3=O)c2)COC1 (stereo not drawn) [Example 38]" obs_value="> 500 nM"
compound="C[C@@H]1c2nc(N3CCC(O[C@H]4CC[C@H](CN5CCN(Cc6cc7c(c(C(F)(F)F)c6)CN(c6cccc(C8(Cc9nncn9C)CC(C#N)C8)c6)C7=O)C(C)(C)C5)CC4)CC3)ccc2C(=O)N1C1CCC(=O)NC1=O (single isomer, unassigned) [Example 307]" obs_value="< 5 nM"
compound="Cc1cc(N2CCC(O[C@H]3CC[C@H](CN4CCN(Cc5cc6c(c(C(F)(F)F)c5)CN(c5cccc(C7(Cc8nncn8C)CC(C#N)C7)c5)C6=O)C(C)(C)C4)CC3)CC2)c(F)c2c1C(=O)N(C1CCC(=O)NC1=O)C2 (stereo partly drawn) [Example 251]" obs_value="5 to 50 nM"

// DC50 (Cbl-b (Homo sapiens, UniProt Q13191)) for Cn1cnnc1CC1(c2cccc(NC(=O)c3cc(N4CC5(CCN(CC6CCN(c7ccc8c(c7)C(=O)N(C7CCC(=O)NC7=O)C8=O)CC6)CC5)C4)nc(C4CC4)n3)c2)COC1 (stereo not drawn) [Example 18] = > 500 nM

Value sought: DC50, system Cbl-b (Homo sapiens, UniProt Q13191), item Cn1cnnc1CC1(c2cccc(N3Cc4c(cc(CN5CCC(CN6CCC(C7CCN(c8ccc9c(c8)C(=O)N(C8CCC(=O)NC8=O)C9=O)CC7)CC6)CC5)cc4C(F)(F)F)C3=O)c2)COC1 (stereo not drawn) [Example 77] . Result: > 500 nM

Entry CC1c2nc(N3CCC(O[C@H]4CC[C@H](CN5CCN(Cc6cc7c(c(C(F)(F)F)c6)CN(c6cccc(C8(Cc9nncn9C)COC8)c6)C7=O)C(C)(C)C5)CC4)CC3)ccc2C(=O)N1C1CCC(=O)NC1=O (relative stereo) [Example 246] , Cbl-b (Homo sapiens, UniProt Q13191) data, DC50 value: < 5 nM

Readout DC50 for CC1c2c(cc(CN3CCN(C[C@H]4CC[C@H](OC5CCN(c6ccc7c(c6F)CN(C6CCC(=O)NC6=O)C7=O)CC5)CC4)CC3(C)C)cc2C(F)(F)F)C(=O)N1c1cccc(C2(Cc3nncn3C)COC2)c1 (stereo partly drawn) [Example 279] , test system Cbl-b (Homo sapiens, UniProt Q13191), was > 500 nM

Lab entry: Cbl-b (Homo sapiens, UniProt Q13191) assay, compound CC1CC(N2CCC(CC3CCN(c4ccc5c(c4)C(=O)N(C4CCC(=O)NC4=O)C5=O)CC3)CC2)CN(Cc2cc3c(c(C(F)(F)F)c2)CN(c2cccc(C4(Cc5nncn5C)COC4)c2)C3=O)C1 (stereo not drawn) [Example 95] , DC50 = > 500 nM

Value sought: DC50, system Cbl-b (Homo sapiens, UniProt Q13191), item Cn1cnnc1C[C@]1(c2cccc(N3Cc4c(cc(CN5CCN(C[C@H]6CC[C@H](OC7CCN(c8ccc9c(c8F)CN(C8CCC(=O)NC8=O)C9=O)CC7)CC6)CC5)cc4C(F)(F)F)C3=O)c2)C[C@@H](C#N)C1 (stereo partly drawn) [Example 14] . Result: < 5 nM

Case CC(C)n1c(=O)n(C2CCC(=O)NC2=O)c2cccc(N3CCC(CN4CCC5(CC4)CN(Cc4ccc(-c6cc7c(c(C(F)(F)F)c6)CN(c6cccc(C8(Cc9nncn9C)CC(C#N)C8)c6)C7=O)cc4)C5)CC3)c21 (stereo not drawn) [Example 283] , Cbl-b (Homo sapiens, UniProt Q13191), DC50 recorded as 5 to 50 nM
